Exercise: state measured optical density (OD) at 405 nm, EIA reactivity of human serum sample 3 for each of the substances provided.
# Tested on: human IgG antibodies in human serum samples
# measurement.protocol: EIA of human antibody reactivities to overlapping synthetic peptides of TTV ORF1 and ORF2 (Tables 2 and 3)
# Type: binding
# experimental.parameters: serum sample 3, negative for TTV DNA by PCR; serum 1:100; peptide coated 10 μg/ml; OD over 0.500 positive
Provide a numeric answer, followed by its unit.

Q: Recorded optical density (OD) at 405 nm, EIA reactivity of human serum sample 3 for 2: overlapping synthetic peptide of TTV ORF1 (YAYPGTNRPPV) [compound 2] , please?
Ans: 0.11 OD

Q: Given the substance VLICGENTVSRNYATHS (Peptide Immunogen) [compound 10, overlapping synthetic peptide of TTV ORF1] , what is its reported optical density (OD) at 405 nm, EIA reactivity of human serum sample 3?
Ans: 0.10 OD

Q: What optical density (OD) at 405 nm, EIA reactivity of human serum sample 3 value was documented for this substance, 20: overlapping synthetic peptide of TTV ORF1 (TATTTTYAYPGTNRPP) [compound 20] ?
Ans: 0.09 OD

Q: Fill in: optical density (OD) at 405 nm, EIA reactivity of human serum sample 3 of peptide 1: overlapping synthetic peptide of TTV ORF1 (TATTTTYAYPGTNRPPV) is ___
Ans: 0.13 OD

Q: Which value of optical density (OD) at 405 nm, EIA reactivity of human serum sample 3 has been reported for KINTMPPFLDTELTAPS (Peptide Immunogen) [compound 18, overlapping synthetic peptide of TTV ORF1] in the records?
Ans: 0.00 OD
